Molecular target: PPAR-delta (UniProt Q03181)
Test: PPAR-delta transactivation assay (GAL4 chimera, luciferase reporter) in CV-1 cells
Conditions: GAL4-PPAR LBD chimera
Measure: EC50

Some entries whose results are on file:
Compound	EC50
C[C@H]1CN(S(=O)(=O)c2ccc3c(c2)C(C(=O)O)CC3)CCN1c1ccc(C(F)(F)F)cn1 (stereo partly shown)	< 5 µM
C[C@H]1CN(c2ccc(OC(F)(F)F)cc2)CCN1S(=O)(=O)c1cccc2c1CC(C(=O)O)C2 (stereo partly shown)	< 5 µM
O=C(O)C1Cc2ccc(S(=O)(=O)N3CCN(c4ccc(C(F)(F)F)cc4)CC3)cc2C1 (stereo not shown)	< 5 µM

Could you now look at the following compound, please?
Input: Which measured EC50 value corresponds to Cc1cc(N2C[C@@H](C)N(S(=O)(=O)c3ccc4c(c3)C(C(=O)O)CC4)[C@@H](C)C2)ccc1OC(F)F (stereo partly shown) ?
Output: < 5 µM

* * *

Molecular target: PPAR-alpha (UniProt Q07869)
Sequence (Q07869 1-468): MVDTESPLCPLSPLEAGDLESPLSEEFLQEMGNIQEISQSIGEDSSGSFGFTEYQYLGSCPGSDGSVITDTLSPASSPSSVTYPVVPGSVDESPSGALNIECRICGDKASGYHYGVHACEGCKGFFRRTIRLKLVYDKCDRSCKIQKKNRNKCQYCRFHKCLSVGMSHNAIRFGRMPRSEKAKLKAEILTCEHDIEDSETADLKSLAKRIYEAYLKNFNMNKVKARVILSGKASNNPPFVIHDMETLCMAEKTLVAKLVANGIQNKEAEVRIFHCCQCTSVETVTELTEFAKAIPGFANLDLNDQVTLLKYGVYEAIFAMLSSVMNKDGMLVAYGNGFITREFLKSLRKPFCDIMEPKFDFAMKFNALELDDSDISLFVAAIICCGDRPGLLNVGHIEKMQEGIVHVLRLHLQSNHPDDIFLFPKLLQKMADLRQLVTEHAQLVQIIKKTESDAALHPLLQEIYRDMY
Assay: PPAR-alpha transactivation assay (GAL4 chimera, luciferase reporter) in CV-1 cells
Settings: GAL4-PPAR LBD chimera
pEC50: −log10 of the molar value.
Measure: pEC50

Input: Field request: pEC50 | item: CC1(C(=O)O)Cc2cccc(S(=O)(=O)N3CCN(c4ccc(C(F)(F)F)cn4)CC3)c2C1 (centres unmarked) [Example 14]
Output: < 4.00

Input: So what's the measured pEC50 for this one? CCC1CN(c2ccc(C(F)(F)F)c(Cl)c2)CCN1S(=O)(=O)c1ccc2c(c1)C(C(=O)O)CC2 (centres unmarked) [Example 56]
Output: > 5.30

Input: Recorded pEC50 of CCC1CN(c2ccc(C(F)(F)F)cn2)CCN1S(=O)(=O)c1ccc2c(c1)C(C(=O)O)CC2 (centres unmarked) [Example 72] , please.
Output: > 5.30

Input: Returns the measured pEC50 for the input compound. Input: C[C@H]1CN(c2ccc(C(F)(F)F)cn2)CCN1S(=O)(=O)c1ccc2c(c1)C(C(=O)O)CC2 (some centres unmarked) [Example 23]
Output: > 5.30

Input: Which value of pEC50 has been reported for C[C@@H]1CN(c2ccc(OC(F)(F)F)cc2)C[C@H](C)N1S(=O)(=O)c1cccc2c1CC(c1nnn[nH]1)C2 (some centres unmarked) [Example 109] in the records?
Output: < 4.00

Input: Recorded pEC50 of O=C(O)C1CCc2ccc(S(=O)(=O)N3CC=C(c4ccc(C(F)(F)F)cn4)CC3)cc21 (centres unmarked) [Example 66] , please.
Output: > 5.30

Input: Which value of pEC50 has been reported for C[C@@H]1CN(c2ccc(OC(F)(F)F)cc2)C[C@H](C)N1S(=O)(=O)c1ccc2c(c1)CC(C(=O)O)C2 (some centres unmarked) [Example 84] in the records?
Output: < 4.00

Input: Which pEC50 value belongs to COc1cc2c(cc1S(=O)(=O)N1CCN(c3ccc(C(F)(F)F)cc3)CC1)CCC2CC(=O)O (centres unmarked) [Example 29] ?
Output: 4.00 to 5.30

Input: Item O=C(O)C1Cc2cccc(S(=O)(=O)N3C4CCCC3CN(c3ccc(OC(F)(F)F)cc3)C4)c2C1 (centres unmarked) [Example 117] has what recorded pEC50?
Output: 4.00 to 5.30

Input: Entry C[C@@H]1CN(c2ccc(Cl)cc2)C[C@H](C)N1S(=O)(=O)c1cccc2c1CC(C(=O)O)C2 (some centres unmarked) [Example 126] has what pEC50?
Output: < 4.00

Input: # lookup: pEC50 of C[C@@H]1CN(Cc2ccc(OC(F)(F)F)cc2)C[C@H](C)N1S(=O)(=O)c1cccc2c1CC(C(=O)O)C2 (single isomer, unassigned) [Example 141]
Output: < 4.00

Input: Which pEC50 is reported for this compound? C[C@@H]1CN(c2ccc(C(F)(F)F)c(Cl)c2)C[C@H](C)N1S(=O)(=O)c1cccc2c1CC(C(=O)O)C2 (relative stereo) [Example 82]
Output: < 4.00

Input: Dear colleague, I am looking for the recorded pEC50 of the following compound: C[C@@H]1CN(c2ccc(Cl)c(Br)c2)C[C@H](C)N1S(=O)(=O)c1cccc2c1CC(C(=O)O)C2 (some centres unmarked) [Example 120]
Output: < 4.00

Input: // pEC50 lookup, key: O=C(O)CC1Cc2cccc(S(=O)(=O)N3CCN(c4ccc(Cl)c(Cl)c4)CC3)c2C1 (centres unmarked) [Example 4]
Output: < 4.00

* * *

Biological target: PPAR-gamma (UniProt P37231)
Experiment: PPAR-gamma transactivation assay (GAL4 chimera, luciferase reporter) in CV-1 cells
Conditions: GAL4-PPAR LBD chimera
Each item that follows carries a reported EC50.

Molecule	EC50
C[C@@H]1CN(c2cc(F)cc(F)c2Cl)C[C@H](C)N1S(=O)(=O)c1cccc2c1CC(C(=O)O)C2 (some centres unmarked) [Example 123]	> 100 µM
C[C@@H]1CN(c2ccc(OC(F)(F)F)cc2)C[C@H](C)N1S(=O)(=O)c1cccc2c1CC(C(=O)O)C2 (some centres unmarked) [Example 79]	> 100 µM
CC1CN(S(=O)(=O)c2cccc3c2CC(C(=O)O)C3)C(C)CN1c1ccc(C(F)(F)F)cn1 (single isomer, unassigned) [Example 119]	> 100 µM
C[C@@H]1CN(c2cccc(OC(F)(F)F)c2)C[C@H](C)N1S(=O)(=O)c1cccc2c1CC(C(=O)O)C2 (single isomer, unassigned) [Example 129]	> 100 µM
O=C(O)C1Cc2cccc(S(=O)(=O)N3CCN(c4ccc(Cl)c(Cl)c4)CC3)c2C1 (centres unmarked) [Example 8]	< 5 µM
COc1cc(N2C[C@@H](C)N(S(=O)(=O)c3cccc4c3CC(C(=O)O)C4)[C@@H](C)C2)ccc1Cl (some centres unmarked) [Example 133]	> 100 µM
O=C(O)C1Cc2cccc(S(=O)(=O)N3CC=C(c4ccc(C(F)(F)F)cc4)CC3)c2C1 (centres unmarked) [Example 18]	5 to 100 µM
O=C(O)C1Cc2cccc(S(=O)(=O)N3CCN(c4ccc(OC(F)(F)F)cc4)CC3)c2C1 (centres unmarked) [Example 102]	< 5 µM
C[C@@H]1CN(S(=O)(=O)c2ccc3c(c2)C(C(=O)O)CC3)CCN1c1ccc(C(F)(F)F)cn1 (some centres unmarked) [Example 25]	< 5 µM
CCC1CN(S(=O)(=O)c2ccc3c(c2)C(C(=O)O)CC3)CCN1c1ccc(C(F)(F)F)cn1 (centres unmarked) [Example 64]	< 5 µM

# next molecule below
Input: Which EC50 reading was recorded for the molecule O=C(O)C1Cc2ccc(S(=O)(=O)N3CCN(c4cccc(C(F)(F)F)c4)CC3)cc2C1 (centres unmarked) [Example 15] ?
Output: 5 to 100 µM

* * *

Below, each entry is listed alongside its reported EC50.
Biological target: PPAR-alpha (UniProt Q07869)
Experiment: PPAR-alpha transactivation assay (GAL4 chimera, luciferase reporter) in CV-1 cells
Settings: GAL4-PPAR LBD chimera

Study these solved cases before continuing.
Compound	Tested on	EC50
C[C@@H]1CN(c2ccc(C(F)(F)F)c(Cl)c2)C[C@H](C)N1S(=O)(=O)c1cccc2c1CC(C(=O)O)C2 (single isomer, unassigned) [Example 138]	PPAR-alpha (UniProt Q07869)	> 100 µM
C[C@H]1CN(c2ccc(C(F)(F)F)c(F)c2)CCN1S(=O)(=O)c1ccc2c(c1)C(C(=O)O)CC2 (stereo partly drawn) [Example 63]	PPAR-alpha (UniProt Q07869)	< 5 µM

Proceeding to the next compound to report its EC50.
Input: Query for PPAR-alpha (UniProt Q07869): what EC50 does the record show for C[C@@H]1CN(Cc2ccc(OC(F)(F)F)cc2)C[C@H](C)N1S(=O)(=O)c1cccc2c1CC(C(=O)O)C2 (stereo partly drawn) [Example 95] ?
Output: 5 to 100 µM

* * *

Reported pEC50 values for a set of compounds
Target: UniProtKB P37231
Assay: PPAR-gamma transactivation assay (GAL4 chimera, luciferase reporter) in CV-1 cells
Conditions: GAL4-PPAR LBD chimera
pEC50: −log10 of the molar value.

Some solved cases for reference:
Compound	pEC50
C[C@@H]1CN(Cc2ccc(C(F)(F)F)cc2)C[C@H](C)N1S(=O)(=O)c1cccc2c1CC(C(=O)O)C2 (some centres unmarked)	4.00 to 5.30
C[C@@H]1CN(c2cccc(OC(F)(F)F)c2)C[C@H](C)N1S(=O)(=O)c1cccc2c1CC(C(=O)O)C2 (single isomer, unassigned) [Example 130]	< 4.00
O=C(O)CC1Cc2ccc(S(=O)(=O)N3CCN(c4ccc(Cl)c(Cl)c4)CC3)cc2C1 (centres unmarked)	4.00 to 5.30
C[C@H]1CN(c2ccc(C(F)(F)F)cn2)CCN1S(=O)(=O)c1cccc2c1CC(C(=O)O)C2 (some centres unmarked)	4.00 to 5.30
O=C(O)CC1Cc2cccc(S(=O)(=O)N3CCN(c4ccc(C(F)(F)F)cc4)CC3)c2C1 (centres unmarked)	4.00 to 5.30

Input: What value of pEC50 has been recorded for this entry: O=C(O)C1CCc2ccc(S(=O)(=O)N3CC=C(c4ccc(C(F)(F)F)cc4)CC3)cc21 (centres unmarked)
Output: 4.00 to 5.30

Input: Reported pEC50, compound C[C@H]1CN(c2ccc(C(F)(F)F)c(F)c2)CCN1S(=O)(=O)c1ccc2c(c1)C(C(=O)O)CC2 (some centres unmarked) : ____
Output: > 5.30

Input: Requested read-out: pEC50. Entry: O=C(O)C1Cc2cccc(S(=O)(=O)N3C4CCCC3CN(c3ccc(OC(F)(F)F)cc3)C4)c2C1 (centres unmarked)
Output: 4.00 to 5.30

Input: Which value of pEC50 has been reported for C[C@@H]1CN(c2ccc(SC(F)(F)F)cc2)C[C@H](C)N1S(=O)(=O)c1cccc2c1CC(C(=O)O)C2 (some centres unmarked) in the records?
Output: 4.00 to 5.30

Input: Suppose we examine the compound CC1(C)CN(S(=O)(=O)c2ccc3c(c2)C(C(=O)O)CC3)CCN1c1ccc(C(F)(F)F)cn1 (centres unmarked) ; what pEC50 value has been reported?
Output: > 5.30

Input: Given the compound O=C(O)C1Cc2cccc(S(=O)(=O)N3CCN(c4cccc(C(F)(F)F)c4)CC3)c2C1 (centres unmarked) , what is its reported pEC50?
Output: 4.00 to 5.30

Input: Fill in: pEC50 of C[C@@H]1[C@H](C)N(c2ccc(C(F)(F)F)cn2)CCN1S(=O)(=O)c1ccc2scc(CC(=O)O)c2c1 (stereo in doubt) is ___
Output: > 5.30

Input: I have this compound here, CC1(C)CN(c2ccc(C(F)(F)F)cn2)CCN1S(=O)(=O)c1ccc2c(c1)C(C(=O)O)CC2 (centres unmarked) , and I need its recorded pEC50.
Output: > 5.30

Input: Would you mind telling me what pEC50 value was observed for C[C@@H]1CN(Cc2ccc(OC(F)(F)F)cc2)C[C@H](C)N1S(=O)(=O)c1cccc2c1CC(C(=O)O)C2 (some centres unmarked) [Example 95] ?
Output: 4.00 to 5.30
